Molecular target: T1, MBP-KEE ligand (EE peptide) (peptide tag (EE/Glu-Glu), derived from …)
T1 construct: EE peptide presented by MBP
T1 chain: EYMPME
Assay: ELISA; wells coated with carrier protein ligands (10 μg/mL); purified Fab serially diluted; detected with goat-anti-human kappa-HRP
Conditions: both partners purified
Recorded Metric: binding result

1) EEf15.4a Fab (Fab, V domains shown, VH as the VH of m4: as EEf15.4 except CDR H1, which is that of design EEf5.1; framework of the αEE scFv (PDB 3NN8); heavy chain constant part of the Fab from the vector pFabF; not described; VL as the VL of m3: framework of the αEE scFv (PDB 3NN8) with designed CDRs L1-L3; kappa light chain constant domain from the vector pFabF; human by the detection reagent (goat anti-human kappa); also called …) VH: QVQLQQSGPEDVKPGASVKISCKASGYIGSSHTVNWVKQSPGKGLEWLAHVRGDASTRYNPSLKSRATLTVDKTSSTVYLELRSLTSEDSSVYYCADRKMYSFYSGGEAWGQGTTVTVSS VL: DIVMTQTPSSLPVSLGDQASISCRSSNARSGSLEWYLQKPGQSPKLLIYDGNNRFSGVPDRFSGSGSGTDFTLKISRVEAEDLGIYYCSAFDQTNKYVGFGAGTKLELK ... no binding
2) EEh14.3 Fab (Fab, V domains shown, VH as the VH of m2: framework of the αEE scFv (PDB 3NN8) with designed CDRs H1-H3; heavy chain constant part of the Fab from the vector pFabF; not described; VL as in the αEE scFv (PDB 3NN8), not modified in the EEh library; kappa light chain constant domain from the vector pFabF; human by the detection reagent (goat anti-human kappa); also called Fab EEh14.3) VH: QVQLQQSGPEDVKPGASVKISCKASGDSLSSYNAGVNWVKQSPGKGLEWLAHMAGVSTRYNPSLKSRATLTVDKTSSTVYLELRSLTSEDSSVYYCVRNEWSGAFWGQGTTVTVSS VL: DIVMTQTPSSLPVSLGDQASISCRSSQSIVHSNGNTYLEWYLQKPGQSPKLLIYKVSNRFSGVPDRFSGSGSGTDFTLKISRVEAEDLGIYYCFQGSLVPPTFGAGTKLELK ... no binding
3) EEf15.4 Fab (Fab, V domains shown, VH as the VH of m3: framework of the αEE scFv (PDB 3NN8) with designed CDRs H1-H3; heavy chain constant part of the Fab from the vector pFabF; not described; VL as the VL of m3: framework of the αEE scFv (PDB 3NN8) with designed CDRs L1-L3; kappa light chain constant domain from the vector pFabF; human by the detection reagent (goat anti-human kappa); also called Fab EEf15.4) VH: QVQLQQSGPEDVKPGASVKISCKASGFSIKGANVNWVKQSPGKGLEWLAHVRGDASTRYNPSLKSRATLTVDKTSSTVYLELRSLTSEDSSVYYCADRKMYSFYSGGEAWGQGTTVTVSS VL: DIVMTQTPSSLPVSLGDQASISCRSSNARSGSLEWYLQKPGQSPKLLIYDGNNRFSGVPDRFSGSGSGTDFTLKISRVEAEDLGIYYCSAFDQTNKYVGFGAGTKLELK ... no binding

Measured values drawn from paper PMC5579192 for this set.
